system.under.test: EP1 Receptor (Homo sapiens, UniProt P34995)
Construct: host or cells: HEK293T
Sequence (P34995 whole entry): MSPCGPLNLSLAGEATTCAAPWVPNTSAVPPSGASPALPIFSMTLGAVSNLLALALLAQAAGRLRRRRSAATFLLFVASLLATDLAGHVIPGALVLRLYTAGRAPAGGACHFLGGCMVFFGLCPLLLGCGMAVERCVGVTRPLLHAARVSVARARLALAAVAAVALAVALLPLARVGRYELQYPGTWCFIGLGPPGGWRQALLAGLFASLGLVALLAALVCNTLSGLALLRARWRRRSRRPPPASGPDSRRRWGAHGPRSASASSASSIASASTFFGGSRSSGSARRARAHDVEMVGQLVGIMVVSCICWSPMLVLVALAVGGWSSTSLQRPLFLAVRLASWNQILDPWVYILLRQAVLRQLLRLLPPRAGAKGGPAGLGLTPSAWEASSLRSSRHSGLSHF
Assay type: cell-based
test.context: read-out: EP1 Receptor EC50 for PGE2; Luminescent assay, Thaw/ON Recovery
measure: EC50 (nM)
Give the number; nM is assumed, so skip it.

Look up EC50: CCCCC[C@H](O)/C=C/[C@H]1[C@H](O)CC(=O)[C@@H]1C/C=C\CCCC(=O)O [PGE2, prostaglandin E2]
10
